Cited source for all entries: PubChem BioAssay AID1745844

System: rodent lifetime carcinogenesis bioassay, tumor incidence TD50
Measurement Description: carcinogenic potency in animals, long-term in vivo studies, CPDB compilation (AID 1745844)
Run Conditions: mouse; strain B6C3F1; females; by gavage; site: uterus, endometrium; lesion: adenocarcinoma, NOS; dosed 103 weeks; study length 103 weeks
Quantity Name: TD50

Test Smiles: COP(=O)(OC)OC
Quantity Name: TD50
Meas Value: 335 mg/kg/day

---

Tested on: rodent lifetime carcinogenesis bioassay, tumor incidence TD50
Measurement Description: carcinogenic potency in animals, long-term in vivo studies, CPDB compilation (AID 1745844)
Run Conditions: rat; strain Wistar; females; in feed; site: small intestine; lesion: adenocarcinoma; dosed 78 weeks; study length 78 weeks

Molecule: O=P(O)(OCC(Br)CBr)OCC(Br)CBr (stereo unspecified)
TD50 (mg/kg/day): 107

---

Test system: rodent lifetime carcinogenesis bioassay, tumor incidence TD50
Measurement Description: carcinogenic potency in animals, long-term in vivo studies, CPDB compilation (AID 1745844)
Run Conditions: mouse; strain B6C3F1; males; oral dosing; site: any site (literature study); lesion: several types; types named in the paper; dosed 84 weeks; study length 84 weeks

Test Smiles: CC(C)N(C(=O)SCC(Cl)=CCl)C(C)C
TD50: 15.6 mg/kg/day

---

Test system: rodent lifetime carcinogenesis bioassay, tumor incidence TD50
Measurement Description: carcinogenic potency in animals, long-term in vivo studies, CPDB compilation (AID 1745844)
Run Conditions: rat; strain Fischer 344; males; in feed; site: ear canal + ear + preputial gland + skin + thyroid gland + Zymbal's gland; lesion: sebaceous adenocarcinoma + squamous-cell carcinoma + adenoma, NOS + carcinoma, NOS + cystadenoma, NOS + papillary adenoma + basal-ce; dosed 78 weeks; study length 107 weeks

Test Smiles: COc1ccc(N)cc1N
TD50: 72.6 mg/kg/day

---

Test system: rodent lifetime carcinogenesis bioassay, tumor incidence TD50
Measurement Description: carcinogenic potency in animals, long-term in vivo studies, CPDB compilation (AID 1745844)
Run Conditions: mouse; strain Swiss; females; in drinking water; site: liver; lesion: hepatoma; dosed 52 weeks; study length 52 weeks

Test Smiles: O=CCC=O
TD50 [mg/kg/day]: 4.62

---

Tested on: rodent lifetime carcinogenesis bioassay, tumor incidence TD50
Measurement Description: carcinogenic potency in animals, long-term in vivo studies, CPDB compilation (AID 1745844)
Run Conditions: rat; strain ACI; males; in feed; site: colorectum; lesion: adenoma; dosed 68 weeks; study length 68 weeks

Test Smiles: CCOC(=O)c1ccc(N)cc1
TD50: 1700 mg/kg/day

---

Test system: rodent lifetime carcinogenesis bioassay, tumor incidence TD50
Measurement Description: carcinogenic potency in animals, long-term in vivo studies, CPDB compilation (AID 1745844)
Run Conditions: mouse; strain B6C3F1; males; inhaled; site: jejunum; lesion: carcinoma; dosed 82 weeks; study length 104 weeks
Quantity Name: TD50

Test Smiles: C=CC=C
Quantity Name: TD50
Meas Value: 310 mg/kg/day

---

System: rodent lifetime carcinogenesis bioassay, tumor incidence TD50
Measurement Description: carcinogenic potency in animals, long-term in vivo studies, CPDB compilation (AID 1745844)
Run Conditions: mouse; strain SENCAR; females; by gavage; site: nasal mucosa; lesion: several types; types named in the paper; dosed 30 weeks; study length 67 weeks
Quantity Name: TD50

Test Smiles: O=NN1CCCCCC1
Study System: rodent lifetime carcinogenesis bioassay, tumor incidence TD50
Quantity Name: TD50
Meas Value: 6.47 mg/kg/day
